# measuredTarget: T1, MHC class I H-2K^b on RMA-S cells (C57BL/6 TAP2-deficient cells) (mouse, UniProt P01887 21-119; P01901 22-369)
# T1 construct: whole, on cells; Cell surface H-2K^b stabilised by added peptide and detected with anti-H-2K^b antibody HB-158
# T1 sequence (MHC heavy, looked up): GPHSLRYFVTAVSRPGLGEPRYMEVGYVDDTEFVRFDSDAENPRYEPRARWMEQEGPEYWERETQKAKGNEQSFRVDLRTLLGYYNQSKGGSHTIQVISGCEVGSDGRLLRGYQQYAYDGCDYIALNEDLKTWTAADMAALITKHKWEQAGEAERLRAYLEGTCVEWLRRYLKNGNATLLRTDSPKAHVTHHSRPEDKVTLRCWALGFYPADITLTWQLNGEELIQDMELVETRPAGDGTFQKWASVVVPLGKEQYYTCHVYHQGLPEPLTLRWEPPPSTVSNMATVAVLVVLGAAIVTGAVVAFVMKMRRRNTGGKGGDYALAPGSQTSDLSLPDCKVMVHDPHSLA
# T1 sequence (b2m, looked up): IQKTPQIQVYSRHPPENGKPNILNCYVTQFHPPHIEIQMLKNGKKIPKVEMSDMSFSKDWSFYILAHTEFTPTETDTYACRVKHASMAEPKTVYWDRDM
# procedureDetails: peptide stabilisation assay on RMA-S cells, flow cytometry with anti-H-2K^b
Could you please report measured peptide concentration that stabilised H-2K^b for the items listed next?

INSERT INTO measurements (binder, val) VALUES
  ('SAPDFRPL (Synthetic peptide) [MUC1-8-5F8L (SAPDFRPL)]', '> 1 nM'),
  ('SAPDFRPA (Synthetic peptide) [MUC1-8-5F (SAPDFRPA)]', '> 100 nM'),
  ('SAPDTRPA (Synthetic peptide, purity >95%; also called MUC1-8 peptide; parent non-canonical peptide MUC1-8) [MUC1-8 (SAPDTRPA)]', '> 100000 nM');

Please turn your attention to the following entry.
-- ask Field request: peptide concentration that stabilised H-2K^b | item: SAPDTRPL (Synthetic peptide) [MUC1-8-8L (SAPDTRPL)]
-- reply > 1000 nM
